assay.system: baker's yeast ALDH1 (Saccharomyces cerevisiae)
Construct: purchased Sigma (St. Louis, MO, USA)
Sequence (P46367 25-519): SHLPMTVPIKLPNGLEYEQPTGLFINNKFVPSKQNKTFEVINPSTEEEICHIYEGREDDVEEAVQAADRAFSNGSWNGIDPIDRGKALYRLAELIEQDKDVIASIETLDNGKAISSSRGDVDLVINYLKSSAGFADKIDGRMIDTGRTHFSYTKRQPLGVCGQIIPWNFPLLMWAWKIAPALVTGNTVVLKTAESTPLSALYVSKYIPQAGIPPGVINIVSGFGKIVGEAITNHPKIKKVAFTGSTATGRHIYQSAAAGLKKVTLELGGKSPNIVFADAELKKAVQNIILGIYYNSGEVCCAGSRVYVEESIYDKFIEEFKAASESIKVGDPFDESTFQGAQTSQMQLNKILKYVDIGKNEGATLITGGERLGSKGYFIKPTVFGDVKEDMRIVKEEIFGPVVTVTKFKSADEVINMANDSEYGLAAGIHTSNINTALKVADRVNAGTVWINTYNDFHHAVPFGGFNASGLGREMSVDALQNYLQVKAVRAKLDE
experimental.protocol: In vitro ALDH1 inhibitory assay (propanal oxidation, NAD, OD 340 nm)
Type: biochemical
test.settings: 1 mM propanal, 2 mM NAD, pH 7.4, 25 °C; read-out: IC50
property.label: pIC50
Numbers only, as −log10 of the molar value.

compound	assay.system	pIC50
COc1cc(/C=C2\CNC/C(=C\c3cc(OC)c(O)c(OC)c3)C2=O)cc(OC)c1O [Compound 3]	baker's yeast ALDH1 (Saccharomyces cerevisiae)	4.52
O=C1/C(=C/c2ccc(Br)cc2)CCC/C1=C\c1ccc(Br)cc1 [Compound 24]	baker's yeast ALDH1 (Saccharomyces cerevisiae)	5.09

The following compounds each have a reported value; give each one's pIC50.
1. O=C1/C(=C/c2cc(O)cc(O)c2)CC/C1=C\c1cc(O)cc(O)c1 [Compound 12]
2. COc1cc(/C=C2\CC/C(=C\c3ccc(O)c(OC)c3)C2=O)ccc1O [Compound 13]
3. O=C1/C(=C/c2ccc(O)c(O)c2)CSC/C1=C\c1ccc(O)c(O)c1 [Compound 9]
4. O=C1/C(=C/c2cc(Br)c(O)c(Br)c2)CSC/C1=C\c1cc(Br)c(O)c(Br)c1 [Compound 20]
5. O=C1/C(=C/c2cc(Br)c(O)c(Br)c2)CCC/C1=C\c1cc(Br)c(O)c(Br)c1 [Compound 18]
6. CCN(CC)C(=S)SSC(=S)N(CC)CC [Disufiram, disulfiram, reference compound]
7. CN(C)c1ccc(/C=C2\CCC/C(=C\c3ccc(N(C)C)cc3)C2=O)cc1 [Compound 22]
8. COc1cc(/C=C2\COC/C(=C\c3cc(F)c(O)c(OC)c3)C2=O)cc(F)c1O [Compound 16]

4.36
4.62
4.64
4.75
4.76
5.54
4.13
4.27

Each compound below has a reported value. Please supply its pIC50.
1. COc1cc(/C=C2\COC/C(=C\c3cc(OC)c(O)c(OC)c3)C2=O)cc(OC)c1O [Compound 15]
2. O=C1/C(=C/c2ccc(O)c(O)c2)CC/C1=C\c1ccc(O)c(O)c1 [Compound 6]

1: 4.78; 2: 5.47

Return reported pIC50 values for all items listed beneath this line.
1. O=C1/C(=C/c2ccncc2)CSC/C1=C\c1ccncc1 [Compound 26]
2. O=C1/C(=C/c2ccc(O)cc2)CC/C1=C\c1ccc(O)cc1 [Compound 10]
3. COc1cc(/C=C2\CSC/C(=C\c3cc(OC)c(OC)c(OC)c3)C2=O)cc(OC)c1OC [Compound 21]
4. CN(C)c1ccc(/C=C2\CSC/C(=C\c3ccc(N(C)C)cc3)C2=O)cc1 [Compound 23]
5. O=C1/C(=C/c2ccccn2)CCC/C1=C\c1ccccn1 [Compound 30]

1. 4.97
2. 4.27
3. 4.20
4. 4.16
5. 4.74

###

assay.system: baker's yeast ALDH1 (Saccharomyces cerevisiae)
Construct: purchased Sigma (St. Louis, MO, USA)
experimental.protocol: In vitro ALDH1 inhibitory assay (propanal oxidation, NAD, OD 340 nm)
Format: biochemical
test.settings: Actual pIC50, Table 3, experimental activity
Method: In vitro ALDH1 inhibitory assay was performed as follows. […] The reaction was started by the addition of 1 mM propanal in final volume of 300 μL and the optical density (OD) was read at 340 nm at 0 min (just after the addition of the substrate) and reacted for 5 min. The enzyme activity is expressed as OD/min at 25 °C at the pH 7.4. […]
property.label: pIC50
One number for each entry, as −log10 of the molar value.

Kindly note the recorded pIC50 for `O=C1/C(=C/c2ccc(O)c(O)c2)CCC/C1=C\c1ccc(O)c(O)c1` , which is 5.20
